Assay Protocol: physchem
Experimental Parameters: pH 7.4, aqueous buffer
Reported Endpoint: solubility (µg/mL)
Expressed in µg/mL, but write only the number.

Entry under test: Cc1cc(/C=C/C#N)cc(C)c1Oc1nc(NC2CCN(Cc3ccc(S(N)(=O)=O)cc3)CC2)nc2c1SCCC2 [compound 23h] . Its solubility was 3.04

###

System: HIV-1 WT strain (IIIB)
Assay Protocol: Anti-HIV-1 activity in MT-4 cells, MTT method, WT strain IIIB
Assay type: cell-based
Experimental Parameters: Human immunodeficiency virus 1, IIIB, MT4, read-out: EC50 IIIB
pEC50: −log10 of the molar value.
Classify by measured pEC50: yes (1) if it is equal to or exceeds 8, no (0) if it is smaller.

Look over these answered cases.
{"Compound": "Cc1cc(/C=C/C#N)cc(C)c1Nc1ccnc(Nc2ccc(C#N)cc2)n1 [RPV, rilpivirine, reference compound]", "Class": "yes (1)"}
{"Compound": "Cc1cc(/C=C/C#N)cc(C)c1Oc1nc(NC2CCN(Cc3ccc(S(N)(=O)=O)cc3)CC2)nc2c1SCCC2 [compound 23h]", "Class": "yes (1)"}
{"Compound": "Cc1cc(C)c(Oc2nc(NCCn3ccc(=O)[nH]c3=O)nc3c2SCCC3)c(C)c1 [20c]", "Class": "no (0)"}
{"Compound": "Cc1cc(C#N)cc(C)c1Oc1nc(Nc2ccc(C#N)cc2)nc2c1S(=O)(=O)CCC2 [compound 16b]", "Class": "yes (1)"}
{"Compound": "Cc1cc(C#N)cc(C)c1Oc1nc(NC2CCN(c3cccc(C(N)=O)c3)CC2)nc2c1SCCC2 [27b]", "Class": "yes (1)"}
{"Compound": "Cc1cc(C#N)cc(C)c1Oc1nc(NCCn2ccc(=O)[nH]c2=O)nc2c1SCCC2 [20a]", "Class": "no (0)"}

Attention now turns to another entry.
Check the entry O=C1Nc2ccc(Cl)cc2[C@@](C#CC2CC2)(C(F)(F)F)O1 [EFV, efavirenz, reference compound] : does pEC50 equal or exceed 8?
yes (1)

###

Tested Target: UniProtKB P11712
Sequence (P11712 whole entry): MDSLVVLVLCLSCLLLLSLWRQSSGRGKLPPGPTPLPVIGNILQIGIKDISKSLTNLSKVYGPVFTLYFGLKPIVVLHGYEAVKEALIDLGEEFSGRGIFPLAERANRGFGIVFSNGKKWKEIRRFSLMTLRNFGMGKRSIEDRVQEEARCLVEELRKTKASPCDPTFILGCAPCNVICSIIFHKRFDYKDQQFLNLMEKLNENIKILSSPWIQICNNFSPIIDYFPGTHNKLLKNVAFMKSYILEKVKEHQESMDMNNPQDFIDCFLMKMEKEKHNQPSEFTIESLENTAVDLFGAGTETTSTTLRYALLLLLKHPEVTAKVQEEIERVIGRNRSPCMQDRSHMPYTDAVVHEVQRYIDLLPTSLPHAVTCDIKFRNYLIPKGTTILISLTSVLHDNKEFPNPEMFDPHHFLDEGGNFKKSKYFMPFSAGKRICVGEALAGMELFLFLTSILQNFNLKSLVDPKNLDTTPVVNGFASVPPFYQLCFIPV
Reported Endpoint: IC50 (µM)
Expressed in µM, but write only the number.

Measured on UniProtKB P11712, Cc1cc(/C=C/C#N)cc(C)c1Oc1nc(NC2CCN(Cc3ccc(S(N)(=O)=O)cc3)CC2)nc2c1SCCC2 [compound 23h] has a documented IC50 of 3.41

###

Assay Protocol: In vivo pharmacokinetics in SD rats
Set-up: species or system Sprague–Dawley (SD) rats
Experimental Parameters: Sprague-Dawley, rat, plasma, po, 20 mg/kg
The reader will find reported MRT inf values listed item by item below.
Expressed in h, but write only the number.

{"Molecule": "Cc1cc(/C=C/C#N)cc(C)c1Oc1nc(NC2CCN(Cc3ccc(S(N)(=O)=O)cc3)CC2)nc2c1SCCC2 [compound 23h]", "Readout Number": 5.02}

Okay, now this molecule:
Entry under test: Cc1cc(C#N)cc(C)c1Oc1nc(Nc2ccc(C#N)cc2)nc(N)c1Br [ETR, etravirine, reference compound] . Its MRT inf was 3.03

###

Assay Protocol: In vivo pharmacokinetics in SD rats
Design: species or system Sprague–Dawley (SD) rats
Experimental Parameters: Sprague-Dawley, rat, plasma, po, 20 mg/kg
The reader will find reported Tmax values listed item by item below.
Expressed in h, but write only the number.

Entry under test: Cc1cc(/C=C/C#N)cc(C)c1Oc1nc(NC2CCN(Cc3ccc(S(N)(=O)=O)cc3)CC2)nc2c1SCCC2 [compound 23h] . Its Tmax was 1.5

Entry under test: Cc1cc(C#N)cc(C)c1Oc1nc(Nc2ccc(C#N)cc2)nc(N)c1Br [ETR, etravirine, reference compound] . Its Tmax was 1

# credit: paper PMC10935503
